B1: Gamma-crystallin C, residues 4 to 79; numbered along this chain, P07315 (parent)
chain: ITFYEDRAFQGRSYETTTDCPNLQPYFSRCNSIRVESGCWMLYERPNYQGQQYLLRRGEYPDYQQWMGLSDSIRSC

# Variants of: B1
# assay-overview: abundance fitness (aPCA) (normalised: wild type 0, dead -1); higher = more abundant; growth selection in yeast, the domain comes from the species named
# stated-conditions: Homo sapiens

[
  {
    "variant-identifier": "E15P",
    "abundance fitness": -0.072
  },
  {
    "variant-identifier": "G68V",
    "abundance fitness": 0.007
  },
  {
    "variant-identifier": "Q10N",
    "abundance fitness": -0.094
  },
  {
    "variant-identifier": "M41A",
    "abundance fitness": -0.07
  },
  {
    "variant-identifier": "Y63F",
    "abundance fitness": 0.032
  },
  {
    "variant-identifier": "Q49V",
    "abundance fitness": -0.098
  },
  {
    "variant-identifier": "V35E",
    "abundance fitness": -1.11
  },
  {
    "variant-identifier": "P61L",
    "abundance fitness": -0.064
  },
  {
    "variant-identifier": "E59T",
    "abundance fitness": -0.196
  },
  {
    "variant-identifier": "F3W",
    "abundance fitness": -0.789
  },
  {
    "variant-identifier": "C20W",
    "abundance fitness": -0.103
  }
]
